Data provenance is PubChem BioAssay AID1159580.

assay: chemical genetic growth profiling, strain panel (AID 1159580);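 note: tested at 20 µM; growth read once vehicle control cultures reached saturation at 30 °C; 1 = growth at the plate median or of vehicle wells; lower values mean less growth of the strain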; conditions: S. cerevisiae deletion strains, growth OD, locus YGL173C, strain kem1
The campaign covered roughly 5,500 compounds. About 2,000 (36%) were called active. Another 18% or so got no clear call; they are omitted. Cut-off read from the data, not from the text of the source: active = normalized growth mostly below about 0.91 (no sharp cut-off); inconclusive = no clear call, values can overlap the other calls; inactive = mostly above about 0.92. Some of the results follow.
Possible outcomes: T for active, F for inactive

1) CC1(C)CC23C(=O)CCC(O)C2(C)CCC13 (stereo unspecified)
F
2) CN1CCCCC1c1ccc(-c2cccnc2)nc1 (stereo unspecified)
F
3) O=C1c2ccccc2C(=O)c2ccccc21
F
4) O=C(O)c1cccnc1C(=O)O
F
5) CC(C)CCCC(C)N (stereo unspecified)
F
6) CNC(C)(C)Cc1ccccc1
F
7) NNCc1ccccc1
F
8) CC(=CC1CCC(C)C2CCC(C)=C12)C(=O)O (stereo unspecified)
T
9) CC(=O)NS(=O)(=O)c1ccc(N)cc1
F
10) CC(C)=CCC/C(C)=C/CO
F
11) O=C1C=C(O)c2ccccc2C1=O
F
12) CNC(C)[C@@H]1CC[C@@H](N)[C@@H](OC2[C@@H](N)C[C@@H](N)[C@H](OC3OC[C@](C)(O)[C@H](NC)[C@H]3O)[C@H]2O)O1 (stereo partly specified)
F
13) NC(Cc1ccc(Cl)cc1)C(=O)O (stereo unspecified)
F
14) O=C1C=CC(=O)c2ccccc21
T
15) COc1cc2c(cc1OC)C(C)NCC2 (stereo unspecified)
F
16) O=c1c(O)c(-c2ccccc2)oc2cc(O)ccc12
T
17) Oc1cccc2cccnc12
T
18) CC(NC(C)(C)C)C(=O)c1cccc(Cl)c1 (stereo unspecified)
F
19) CNC(=O)N(C)c1nnc(C(C)(C)C)s1
F
20) COc1ccc(NS(=O)(=O)c2ccc(N)cc2)nn1
F
21) O=c1c(O)c(-c2ccc(O)cc2)oc2ccccc12
T

---

test: chemical genetic growth profiling, strain panel (AID 1159580);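 note: tested at 20 µM; growth read once vehicle control cultures reached saturation at 30 °C; 1 = growth at the plate median or of vehicle wells; lower values mean less growth of the strain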; details: S. cerevisiae deletion strains, growth OD, locus YAL030W, strain snc1, stronger effect = lower value
Screen size: about 5,500 compounds; about 2,000 (36%) were called active. About 18% were inconclusive and are not listed. The list shows a part of the results.
Reported values of normalized growth for individual entries
endpoint: normalized growth

1. CC1=C(C(=O)O)N2C(=O)[C@@H](NC(=O)[C@@H](N)c3ccc(O)cc3)[C@H]2SC1
1.03 (inactive)
2. CNC(=O)Oc1ccccc1OC(C)C
0.992 (inactive)
3. CC(=O)c1ccc[nH]1
0.997 (inactive)
4. CC(C)[C@@H]1CC[C@@H](C)CC1=O
0.998 (inactive)
5. CC(C)C1CCC(C(=O)N[C@@H](Cc2ccccc2)C(=O)O)CC1 (stereo partly specified)
0.975 (inactive)
6. COc1cc([C@@H]2c3cc4c(cc3[C@H](O)[C@H]3COC(=O)[C@H]23)OCO4)cc(OC)c1OC
1.01 (inactive)

---

assay: chemical genetic growth profiling, strain panel (AID 1159580);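 note: tested at 20 µM; growth read once vehicle control cultures reached saturation at 30 °C; 1 = growth at the plate median or of vehicle wells; lower values mean less growth of the strain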; settings: S. cerevisiae deletion strains, growth OD, locus YLR258W, strain gsy2
The campaign covered roughly 5,500 compounds. About 2,000 (36%) were called active. Roughly 18% stayed inconclusive and do not appear here. Cut-off read from the data, not from the text of the source: active = normalized growth mostly below about 0.91 (no sharp cut-off); inconclusive = no clear call, values can overlap the other calls; inactive = mostly above about 0.92. Some of the results follow.
Classes used: active, inactive

1) Oc1cc2c(cc1O)C(c1ccccc1)CNCC2 (stereo not given)
inactive
2) O=C1C=C(O)c2ccccc2C1=O
inactive
3) C=C[C@H]1CN2CC[C@H]1C[C@H]2[C@H](O)c1ccnc2ccccc12
inactive
4) CO/N=C(/C(=O)NC1C(=O)N2C(C(=O)OCOC(=O)C(C)(C)C)=C(/C=C\c3scnc3C)CSC12)c1csc(N)n1 (stereo not given)
inactive
5) CC(=O)O[C@H]1CC2CCC3C(CC[C@@]4(C)C3C[C@H]([N+]3(C)CCCCC3)[C@@H]4OC(C)=O)[C@@]2(C)C[C@@H]1N1CCCCC1 (stereo not given in full)
inactive
6) NNCc1ccccc1
inactive
7) COc1ccc(NS(=O)(=O)c2ccc(N)cc2)nn1
inactive
8) CC(C)c1cc2c(c(O)c1O)[C@@]1(C(=O)O)CCCC(C)(C)C1CC2 (stereo not given in full)
active
9) CNC(C)(C)Cc1ccccc1
inactive
10) CNC(=O)Oc1ccccc1OC(C)C
inactive
11) CC(=O)c1ccc[nH]1
inactive
12) CC(NC(C)(C)C)C(=O)c1cccc(Cl)c1 (stereo not given)
inactive
13) O=C(/C=C/c1ccc(O)cc1)c1ccccc1O
active
14) COc1cc(Cc2cnc(N)nc2N)cc(OC)c1OC
inactive
15) O=C(/C=C/c1ccccc1)c1ccc(O)cc1O
active
16) Cn1c(=O)[nH]c2ncn(C)c2c1=O
inactive
17) CC(=O)CCCCn1c(=O)c2c(ncn2C)n(C)c1=O
inactive
18) O=C(/C=C/c1ccc(O)cc1)c1ccc(O)cc1O
inactive
19) O=C(/C=C/c1ccccc1)c1ccc(O[C@@H]2O[C@H](CO)[C@@H](O)[C@H](O)[C@H]2O)cc1O
inactive
20) Cn1cnc2c1c(=O)[nH]c(=O)n2C
inactive
21) NS(=O)(=O)c1cc2c(cc1Cl)NCNS2(=O)=O
inactive
22) O=C1c2ccccc2C(=O)c2ccccc21
inactive
23) CCCC(=O)Nc1ccc(OCC(O)CNC(C)C)c(C(C)=O)c1 (stereo not given)
inactive
24) CNC(=O)N(C)c1nnc(C(C)(C)C)s1
inactive
25) CCC1(C2=NCCN2)Cc2ccccc2O1 (stereo not given)
inactive
